- Test system: SF-539
- assay procedure: NCI tumour cell line growth inhibition, 48 h
Activity calls are given as the source filed them. Cut-off read from the data, not from the text of the source: active = GI50 up to about 1.1 µM and inactive = higher.
Outcomes: active, inactive

- compound: "c1ccc(C2CC(N3CCOCC3)=Nc3ccccc3N2)cc1 (stereo not drawn)"
  group label: "inactive"
- compound: "COc1cc([C@H]2c3cc4c(cc3O[C@@]3(O)COC(=O)[C@@H]23)OCO4)cc(OC)c1OC"
  group label: "inactive"
- compound: "N=C(N)Nc1ccc(-c2ccc(NC(=N)N)cc2)cc1"
  group label: "inactive"
- compound: "COc1cc(/C=C2\\N=C(c3ccccc3)N(c3ccc(C(=O)c4ccccc4)cc3N3C(=O)/C(=C/c4ccc(O)c(OC)c4)N=C3c3ccccc3)C2=O)ccc1O"
  group label: "inactive"
- compound: "Cc1cc(S(=O)(=O)Nc2nc(Nc3ccccc3)n[nH]2)c(SCC(=O)O)cc1Cl"
  group label: "inactive"
- compound: "O=C1/C(=C/c2ccccc2)N=C2Sc3c([nH]cnc3=O)N12"
  group label: "inactive"
- compound: "CCCCCN1CCN(c2ncccn2)CC1"
  group label: "inactive"
- compound: "Cc1csc2c1C(=O)c1ccsc1C2=O"
  group label: "inactive"
- compound: "CC(C)(C)c1ccc2c(c1)S(=O)(=O)Nc1ccc(Cl)cc1NS(=O)(=O)c1cc(C(C)(C)C)ccc1OCCOCCOCCO2"
  group label: "inactive"
- compound: "CC[C@@H]1C[C@@H]2CN3CCc4c([nH]c5ccc(OC)cc45)C(COC(=O)c4ccc(OC)c(OC)c4)(C2)C13"
  group label: "inactive"
- compound: "COC(=O)c1c[nH]cc1CCc1c[nH]cc1C(=O)OC"
  group label: "inactive"
- compound: "O=C(CC(O)(C(F)(F)F)C(F)(F)F)c1cc(CC(=O)C(O)(C(F)(F)F)C(F)(F)F)cc(CC(=O)C(O)(C(F)(F)F)C(F)(F)F)c1"
  group label: "inactive"
- compound: "CC(=O)O[C@H]1C(=O)[C@@]2(C)C(C(OC(=O)c3ccccc3)[C@]3(O)CC(OC(=O)C(O)C(NC(=O)c4ccc(C)cc4)c4ccccc4)C(C)=C1C3(C)C)[C@]1(OC(C)=O)CO[C@@H]1C[C@@H]2O (stereo partly drawn)"
  group label: "active"
- compound: "Cc1cc(S(=O)(=O)Nc2n[nH]c(-c3ccc(Cl)cn3)n2)c(S)cc1Cl"
  group label: "inactive"
- compound: "CON(C)C(=O)C(Cc1ccccc1)NC(=O)OCc1ccccc1 (stereo not drawn)"
  group label: "inactive"
- compound: "NC(=O)c1ncn2c1NC(=O)CC2"
  group label: "inactive"
- compound: "CN(C)CCNC(=O)c1ccc(NCCCN(C)CCCNc2ccc(C(=O)NCCN(C)C)c3nc4ccccc4c(O)c23)c2c(O)c3ccccc3nc12"
  group label: "active"
- compound: "CCc1c(OC(C)=O)c2c(NC3OC(COC(C)=O)C(OC(C)=O)C(OC(C)=O)C3OC(C)=O)nc(SC)nc2oc1=O (stereo not drawn)"
  group label: "inactive"
- compound: "CCCCCC1=CC(=O)C1(Cl)Cl"
  group label: "inactive"
- compound: "O=c1ccccc2cccc(O)c12"
  group label: "inactive"
- compound: "O=C1NC(=O)C2C1C1C=C3c4ccccc4N(c4ccccc4)C32[C@H]2C(=O)NC(=O)[C@@H]12 (stereo partly drawn)"
  group label: "inactive"
- compound: "COc1ccc(C2=NN(c3nsc4ccccc34)C(=O)CC2)cc1"
  group label: "inactive"
- compound: "O=[As](O)(O)c1ccc(Cc2ccc([As](=O)(O)O)cc2)cc1"
  group label: "active"
- compound: "COc1ccc(C2CC(c3sc(Nc4ccc(C)cc4)nc3C)=NN2)cc1 (stereo not drawn)"
  group label: "inactive"
- compound: "O=C1NC(=S)NC(=O)C1=C/C=C/c1ccc([N+](=O)[O-])cc1"
  group label: "inactive"
- compound: "COc1ccc2nc3c(c(NCCCN(C)C)c2c1)CCCC3"
  group label: "inactive"
- compound: "Cc1nc2cccc(F)c2c(=O)n1C1CCCCNC1=O (stereo not drawn)"
  group label: "inactive"
- compound: "CN1C2(c3ccccc3)c3c(-c4ccccc4)sc(-c4ccccc4)c3C1(c1ccccc1)C1C(=O)N(c3ccccc3)C(=O)C12 (stereo not drawn)"
  group label: "inactive"
- compound: "O=C(O)c1cc2ccccc2oc1=O"
  group label: "inactive"
- compound: "c1cc(CN2CCNCCNCCNCC2)cc(CN2CCNCCNCCNCC2)c1"
  group label: "inactive"
- compound: "O=C1C2ON3c4ccccc4C(=O)C3(c3ccccc3)C2C(=O)N1c1ccccc1 (stereo not drawn)"
  group label: "inactive"
- compound: "O=C1c2ccccc2C(=O)N1n1c(Cc2ccc([N+](=O)[O-])cc2)n[nH]c1=O"
  group label: "inactive"
- compound: "CN1CCc2c(sc3ncn(Nc4ccc(Cl)cc4)c(=N)c23)C1"
  group label: "inactive"
